# Tested target: UniProt P54750
# Sequence (P54750 whole entry, species assumed): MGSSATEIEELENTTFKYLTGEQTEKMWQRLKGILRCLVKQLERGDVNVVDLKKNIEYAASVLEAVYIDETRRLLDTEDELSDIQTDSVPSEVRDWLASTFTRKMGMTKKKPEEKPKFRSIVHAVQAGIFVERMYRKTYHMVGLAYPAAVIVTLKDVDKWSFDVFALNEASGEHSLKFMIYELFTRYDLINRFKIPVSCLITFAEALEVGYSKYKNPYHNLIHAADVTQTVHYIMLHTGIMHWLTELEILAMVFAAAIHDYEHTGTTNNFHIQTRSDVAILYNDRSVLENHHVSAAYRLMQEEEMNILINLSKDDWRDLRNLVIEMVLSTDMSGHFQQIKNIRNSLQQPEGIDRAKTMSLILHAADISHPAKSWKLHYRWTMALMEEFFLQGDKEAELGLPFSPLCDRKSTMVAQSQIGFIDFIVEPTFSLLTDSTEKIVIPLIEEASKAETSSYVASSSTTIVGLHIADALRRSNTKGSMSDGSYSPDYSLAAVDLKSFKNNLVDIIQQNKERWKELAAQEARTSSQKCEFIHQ

- Smiles structure: "COc1ccc2c([C@H]3CCc4ccc(Cl)cc43)ncnc2c1OC"
  IC50: "2 nM"

###

# Tested target: PDE1C (Homo sapiens)
# Sequence (Q14123 whole entry, species assumed): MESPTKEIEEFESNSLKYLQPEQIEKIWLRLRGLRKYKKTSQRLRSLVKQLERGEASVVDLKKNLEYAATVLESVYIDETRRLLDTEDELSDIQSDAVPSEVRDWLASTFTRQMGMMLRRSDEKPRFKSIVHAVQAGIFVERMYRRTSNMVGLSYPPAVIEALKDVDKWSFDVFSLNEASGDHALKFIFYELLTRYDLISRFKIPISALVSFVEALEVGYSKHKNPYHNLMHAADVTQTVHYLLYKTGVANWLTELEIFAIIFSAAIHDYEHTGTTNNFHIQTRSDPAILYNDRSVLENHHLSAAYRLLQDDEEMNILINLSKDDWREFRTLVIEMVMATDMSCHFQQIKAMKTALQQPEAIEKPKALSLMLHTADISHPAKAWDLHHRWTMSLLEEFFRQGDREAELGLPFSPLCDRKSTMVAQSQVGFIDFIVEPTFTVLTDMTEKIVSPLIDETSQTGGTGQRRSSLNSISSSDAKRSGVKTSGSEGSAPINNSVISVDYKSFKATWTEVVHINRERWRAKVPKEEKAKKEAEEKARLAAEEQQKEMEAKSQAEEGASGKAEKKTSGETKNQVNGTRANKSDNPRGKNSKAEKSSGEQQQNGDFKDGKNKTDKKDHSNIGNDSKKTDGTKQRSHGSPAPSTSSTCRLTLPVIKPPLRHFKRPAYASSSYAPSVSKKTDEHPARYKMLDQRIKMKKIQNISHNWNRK

- Smiles structure: "COc1ccc2c([C@H]3CCc4ccc(Cl)cc43)ncnc2c1OC"
  Tested target: "PDE1C (Homo sapiens)"
  IC50 / nM: 7

###

# Test: Log D by shake flask method (n-octanol/PBS)
# Format: physicochemical
# Condition label: measured with [11C]PF-04822163

- Smiles structure: "COc1ccc2c([C@H]3CCc4ccc(Cl)cc43)ncnc2c1OC"
  logD: 2.53
